Origin of values: PubChem BioAssay AID1845212

tested on: NCI-H719 tumor spheroids, viability; assay: Anticancer human tumor NCI-H719 cell line growth inhibition; details: second compound 0.0003 µM; first compound 0.0316 µM; active compounds read low; spheroids with HUVEC and MSC;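 further: spheroids exposed to compounds for seven days; percent viability relative to DMSO vehicle control as 100%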
Attribute: viability, T/C
Kindly answer with a numeric value in %, unit omitted.

compound	unit spec	measurement
Cc1cc(C)c(CNC(=O)c2cc(-c3ccc(CN4CCOCC4)cc3)cc3c2cnn3C2CCCC2)c(=O)[nH]1 + COc1cc2c(cc1O)CCNC21CSC2c3c(OC(C)=O)c(C)c4c(c3C(COC1=O)N1C(O)C3Cc5cc(C)c(OC)c(O)c5C(C21)N3C)OCO4	%	6.57

Query string: Please report the recorded viability, T/C for CC1COCCN1c1cc(-c2ccnn2C)c2ccnc(-c3ccn[nH]3)c2n1 (configuration not stated) + COc1cc2c(cc1O)CCNC21CSC2c3c(OC(C)=O)c(C)c4c(c3C(COC1=O)N1C(O)C3Cc5cc(C)c(OC)c(O)c5C(C21)N3C)OCO4 .
Result string: 7.42
